- System: caspase-3 activation
- method description: Immunofluorescence apoptosis, NIH-3T3
- Assay type: cell-based, mouse
- condition parameters: NIH-3T3, 24 h; 79a 0.111 µM, 92 0.038 µM, 97 0.042 µM; mitomycin C as validation
property label: caspase-3 activation

C[C@@H]1O[C@@H](O[C@H]2CC[C@@]3(C)[C@H](CC[C@@H]4[C@@H]3CC[C@]3(C)[C@@H](C5=CC(=O)OC5)CC[C@]43O)C2)[C@H](O)[C@H](O)[C@H]1O [compound 97, digitoxigenin-L-α-rhamnoside] = did not upregulate
C[C@@H]1O[C@@H](O[C@H]2CC[C@@]3(CO)[C@H](CC[C@@H]4[C@@H]3CC[C@]3(C)[C@@H](C5=CC(=O)OC5)CC[C@]43O)C2)[C@H](O)[C@H](O)[C@H]1O [79a, cannogenol-L-α-rhamnoside] = did not upregulate
C[C@@H]1O[C@H](O[C@H]2CC[C@]3(CO)[C@H]4CC[C@]5(C)[C@@H](C6=CC(=O)OC6)CC[C@]5(O)[C@@H]4CC[C@]3(O)C2)[C@H](O)[C@H](O)[C@H]1O [compound 92, strophanthidol-L-α-rhamnoside] = did not upregulate
